Experiment: chemical genetic growth profiling, strain panel (AID 1159580);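 further: tested at 20 µM; growth read once vehicle control cultures reached saturation at 30 °C; lower values mean less growth of the strain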
Settings: S. cerevisiae deletion strains, growth OD, locus YBR135W, strain CKS1
In all, about 5,500 compounds went through this assay and about 2,000 (36%) were called active. Roughly 18% stayed inconclusive and do not appear here. No stated cut-off is given here; in the data, active means normalized growth mostly below about 0.91 (no sharp cut-off); inconclusive means no clear call, values can overlap the other calls; inactive means mostly above about 0.92. This is one part of the list.
Returns: one label drawn from t = active, f = inactive

Worked examples follow.
Compound	Class Label
O=C(Nc1ccc(Cl)cc1)OCCSc1nc2ccccc2s1	f
Cc1ccc(NS(=O)(=O)c2ccc(-c3csc(C)n3)s2)c(C)c1	f
Cc1c(-c2ccnn2C(=O)c2ccco2)cnn1-c1ccccc1	f
Cc1c(C(=S)Nc2ccccc2)sc2ccccc12	f
O=[N+]([O-])c1ccc2oc(C(O)c3ccc(-c4ccccc4)cc3)cc2c1 (stereo not given)	f

Please indicate how the test categorized `Cc1onc(-c2c(F)cccc2Cl)c1C(=O)NNc1cc(Cl)cc(Cl)c1` .
f

Please indicate how the test categorized `O=[N+]([O-])c1ccc(Sc2ssc(=S)c2-c2ccccc2)nc1` .
f

Please indicate how the test categorized `Cc1onc(-c2c(Cl)cccc2Cl)c1C(=O)NC(C)(C)CC(C)(C)C` .
f

Please indicate how the test categorized `Cc1c(C(=O)N(Cc2ccccc2)Cc2cccs2)cnn1-c1ccc(Cl)cc1` .
f

Please indicate how the test categorized `S=c1[nH]nc(Nc2ccc(I)cc2)s1` .
t

From: PubChem BioAssay AID1159580
